Tested on: MES-SA/DX5
Method summary: SRB antiproliferation assay, doxorubicin-resistant MES-SA/DX5
Experimental context: Homo sapiens, MES-SA/Dx5, 96 h, read-out: IC50 in the SRB, MES-SA/DX5, uterine MDR, 96 h, N = 3
Metric name: IC50 (nM)
Response body: numeric value in nM, unit text excluded.

Req: Specify reported IC50 for the molecule shown: COc1cc(C(=O)c2csc(-c3ccc4[nH]ccc4c3)n2)cc(OC)c1OC [compound 31]
Resp: 8

Others:
Req: State its IC50 for this molecule: COc1cc(C(=O)c2csc(-c3ccc4c(ccn4C)c3)n2)cc(OC)c1OC [31a]
Resp: 18

* * *

Recorded IC50, one value per entry.
Tested on: B16-F1
Method summary: SRB antiproliferation assay, B16-F1 melanoma
Assay type: cell-based, mouse
Experimental context: Mus musculus, B16-F1, SRB; read-out: IC50 B16-F1 (converted)

Req: For the compound "Cc1ccc(-c2nc(C(=O)c3ccc(F)cc3)cn2C(=O)c2ccc(F)cc2)cc1" , give its reported IC50.
Resp: > 10 µM

Req: Provide IC50 value for the following compound: "O=C(c1ccc(F)cc1)c1csc(-c2ccccc2)n1"
Resp: > 10 µM

Req: Name the recorded IC50 of the item "O=C(c1ccc2c(c1)OCO2)N1CCC(c2ccccc2)CC1" in your answer.
Resp: > 20 µM

Others:
Req: Tell me measured IC50 for "O=C(c1ccc(OC(F)(F)F)cc1)c1csc(-c2ccccc2)n1" please.
Resp: > 10 µM

Req: Check the records and state IC50 for "COc1cc(C(=O)c2cscn2)cc(OC)c1OC"
Resp: > 100 µM

Req: Indicate the recorded IC50 value for this compound: "O=C(c1ccc(F)cc1)N1CCC(c2ccccc2)CC1"
Resp: > 20 µM

* * *

Test system: B16-F1
Method summary: SRB antiproliferation assay, B16-F1 melanoma
Type: cell-based, mouse
Experimental context: Mus musculus, B16-F1, SRB; read-out: IC50 B16-F1 (converted)
Metric name: IC50

Req: // fetch IC50 given entry "COc1cc(C(=O)c2csc(-c3ccccc3)n2)cc(OC)c1O"
Resp: > 10 µM

Req: Assign IC50 to the following record: "COc1cc(-c2nc(C(=O)c3ccc(F)cc3)cn2C(=O)c2ccc(F)cc2)cc(OC)c1OC"
Resp: > 10 µM

Req: Tell us which IC50 value is on record for "O=C(c1ccc(F)cc1)c1csc(-c2ccc(F)cc2)n1"
Resp: > 10 µM

Proceed to the following item.
Req: Consider the compound "O=C(c1cc(O)c(O)c(O)c1)c1csc(-c2ccccc2)n1" and give its recorded IC50.
Resp: > 20 µM

* * *

System: A375
Method summary: SRB antiproliferation assay, A375 melanoma
Format: cell-based, human
Experimental context: Homo sapiens, A-375, SRB; read-out: IC50 A375 (converted)
Quick list: IC50 per entry.

Req: Report measured IC50; entry is COc1cc(C(=O)c2csc(-c3ncccn3)n2)cc(OC)c1OC [8y]
Resp: 4.1 µM

Req: State its IC50: O=C(c1ccc(OC(F)(F)F)cc1)c1csc(-c2ccccc2)n1 [13-13]
Resp: > 10 µM

Req: For O=C(c1ccc(F)cc1)c1csc(-c2ccc(F)cc2)n1 [14-14] , write its IC50.
Resp: > 10 µM

Req: Fill in reported IC50 for this entry: COc1ccc(C(=O)n2ccnc2-c2ccc(F)cc2)cc1 [24-24]
Resp: > 10 µM

Req: Fill in reported IC50 for this entry: COc1cc(C(=O)c2csc(-c3ccncc3)n2)cc(OC)c1OC [8x]
Resp: > 100 µM

More entries:
Req: Quickly give me recorded IC50 for O=C(c1ccc(F)cc1)c1csc(-c2ccccc2)n1 [12-12]
Resp: > 10 µM

Req: Output IC50 of Cc1ccc(-c2nc(C(=O)c3ccc(F)cc3)cn2C(=O)c2ccc(F)cc2)cc1 [29-29]
Resp: > 10 µM
